# Test system: 885724-159-R-J1-PDC complex spheroid viability;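 also: spheroids exposed to compounds for 7 days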
# measurement protocol: Anticancer human tumor 885724-159-R-J1-PDC patient-derived pancreatic adenocarcinoma cell line growth inhibition [POLQ]
# recorded conditions: second compound 0.0316 µM; first compound 0.1 µM; hits give low values
Recorded viability, T/C values for a group of molecules are listed next.
Answer in %, number only, no unit symbol.

molecule	result value
COc1cccc2c1C(=O)c1c(O)c3c(c(O)c1C2=O)CC(O)(C(=O)CO)CC3OC1CC(N)C(O)C(C)O1 (stereo not given) + Cc1cccc(N(C)C(=O)C2C(O)CCN2c2nc(C)cc(C(F)(F)F)c2C#N)c1	57.1
COc1ccc([C@@H](O)c2cc(-c3ncnc4cc(N5CCOCC5)ccc34)c(F)cc2Cl)nn1 + COC1C(OC(N)=O)C(O)C(Oc2ccc3c(O)c(NC(=O)c4ccc(O)c(CC=C(C)C)c4)c(=O)oc3c2C)OC1(C)C	85.4

Pending molecule:
Param readout= viability, T/C; system= 885724-159-R-J1-PDC complex spheroid viability; entry= CCc1cc2c(N3CCc4c(cc(Cn5ccnc5)cc4-c4cn(C)nc4C(F)(F)F)C3=O)ccnc2c(OC)n1 + COC1C(OC(N)=O)C(O)C(Oc2ccc3c(O)c(NC(=O)c4ccc(O)c(CC=C(C)C)c4)c(=O)oc3c2C)OC1(C)C ; returns value.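 Also: spheroids exposed to compounds for 7 days.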
76.4
